# system: UniProt:P08485
# Sequence (P08485 whole entry): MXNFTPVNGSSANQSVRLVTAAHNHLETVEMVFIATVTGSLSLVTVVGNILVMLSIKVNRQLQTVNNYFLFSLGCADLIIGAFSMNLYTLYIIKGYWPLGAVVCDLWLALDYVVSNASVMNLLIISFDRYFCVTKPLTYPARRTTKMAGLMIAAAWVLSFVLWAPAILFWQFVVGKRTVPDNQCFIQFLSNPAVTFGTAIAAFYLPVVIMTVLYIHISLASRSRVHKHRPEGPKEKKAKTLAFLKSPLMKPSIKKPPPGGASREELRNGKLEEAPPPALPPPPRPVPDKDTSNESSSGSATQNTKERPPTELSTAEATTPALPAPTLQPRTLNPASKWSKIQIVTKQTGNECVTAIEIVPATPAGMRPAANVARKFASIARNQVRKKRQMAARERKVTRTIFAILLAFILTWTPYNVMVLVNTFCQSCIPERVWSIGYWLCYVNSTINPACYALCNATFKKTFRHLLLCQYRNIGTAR
# experiment-description: mAChR M4 cell-based functional assay (calcium flux, antagonist mode vs EC80 acetylcholine), rat M4/Gqi5/CHO-K1 cells
# applied-conditions: decrease of response elicited by EC80 acetylcholine; rat M4/Gqi5 CHO-K1 cells
# Method: Human or rat M4 cDNA, along with the chimeric G protein Gqi5, were transfected into Chinese hamster ovary (CHO-K1) cells purchased from the American Type Culture Collection using Lipofectamine2000. […] Calcium flux was measured using the Functional Drug Screening System (FDSS) 6000 or 7000 (Hamamatsu Corporation, Tokyo, Japan) as an increase in the fluorescent static ratio. […] Agonist activity was analyzed as a concentration-dependent increase in calcium mobilization upon compound addition. […]
measured-property: IC50 (nM)

Field: example entries. Status: answers known.
[
  {
    "compound": "Cn1cc2cc(-c3ccc(N[C@H]4C[C@@H]5CN(C6CCOCC6)C[C@@H]5C4)nn3)ccc2n1",
    "units-text": "nM",
    "IC50": 2130
  },
  {
    "compound": "Cc1cc(CN2C[C@H]3C[C@H](Nc4ccc(S(=O)(=O)C5CCCCC5)nn4)C[C@H]3C2)ccc1F",
    "units-text": "nM",
    "IC50": 591
  },
  {
    "compound": "Fc1ccc(Cl)c(-c2ccc(N[C@H]3C[C@@H]4CN(C5CCC6(CCOCC6)CC5)C[C@@H]4C3)nn2)c1",
    "units-text": "nM",
    "IC50": 102
  }
]

(A) CC(C)(C)CCN1C[C@H]2C[C@H](Nc3ccc(S(=O)(=O)c4ccccc4)nn3)C[C@H]2C1
(B) Fc1ccc(Cl)c(-c2ccc(N[C@H]3C[C@@H]4CN(C5CC6(COC6)C5)C[C@@H]4C3)nn2)c1
Could you kindly indicate whether A or B has the higher IC50 value? In your reply, give the label of the chosen option. B

This collection of values is drawn from patent US20230183218A1.
